# normalized growth per entry
- Assay comment: chemical genetic growth profiling, strain panel (AID 1159580);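 further: tested at 20 µM; growth read once vehicle control cultures reached saturation at 30 °C; 1 = growth at the plate median or of vehicle wells; lower values mean less growth of the strain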
- Details: S. cerevisiae deletion strains, growth OD, locus YCL061C, strain MRC1 (second series), hits give low values
In all, about 5,500 compounds went through this assay and about 2,000 (36%) were called active. About 18% were inconclusive and are not listed. The list shows a part of the results.
Just the number.

| Compound | normalized growth |
| --- | --- |
| OC(CN1CCC(Cc2ccc(F)cc2)CC1)c1ccc(Cl)cc1 (configuration not stated) | 0.997 |

stdin: Which normalized growth value is on record for COc1ccc2c(c1)c(CC(=O)O)c(C)n2Cc1ccc(F)cc1 ?
stdout: 1.01

stdin: Which normalized growth is listed for NC(=O)c1cccc(N)c1 ?
stdout: 1

stdin: normalized growth lookup needed for CC1OC1P(=O)(O)O (configuration not stated) , thanks.
stdout: 1.01

stdin: Item under review: Cc1cccc(C)c1NC1=NCCCS1 . Reported normalized growth?
stdout: 1.01

stdin: // normalized growth lookup, key: Clc1ccc(Cn2c(CN3CCCC3)nc3ccccc32)cc1
stdout: 0.996

stdin: # get_value(readout='normalized growth', item= O=C(O)C1CCNCC1 )
stdout: 0.998

----------
normalized growth values by entry
- Assay comment: chemical genetic growth profiling, strain panel (AID 1159580);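 further: tested at 20 µM; growth read once vehicle control cultures reached saturation at 30 °C; 1 = growth at the plate median or of vehicle wells; lower values mean less growth of the strain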
- Details: S. cerevisiae deletion strains, growth OD, locus YDR150W, strain NUM1, hits give low values
The campaign covered roughly 5,500 compounds. About 2,000 (36%) were called active. Inconclusive results (about 18%) are left out. This is one part of the list.

| Molecule | Assay value |
| --- | --- |
| C=CC(N)CCC(=O)O (centres undefined) | 1 (inactive) |
| CCN(CC)CCNC(=O)c1c(-c2c(Cl)cccc2Cl)noc1C | 0.903 (inactive) |
| COc1ccc(C(C)=O)cc1CSC(=NS(=O)(=O)c1ccccc1)Nc1cccc(F)c1 | 0.913 (inactive) |
| CCCCOC(=O)c1ccc(N)cc1 | 0.988 (inactive) |
| Cc1cc(NC(=O)c2c(-c3c(Cl)cccc3Cl)noc2C)c([N+](=O)[O-])cc1C | 1.03 (inactive) |
| CCCCOC(=O)c1ccccc1C(=O)OCc1ccccc1 | 0.947 (inactive) |
| Cc1onc(-c2c(F)cccc2Cl)c1C(=O)c1ccc(F)cc1 | 0.963 (inactive) |
| CCCCOC(=O)c1ccccc1C(=O)OCCCC | 0.989 (inactive) |

stdin: # normalized growth lookup, item Cc1ccc(CC(=O)O)cc1
stdout: 0.884 (inactive)

stdin: Using the record for CCCCNc1ccc(C(=O)OCCN(C)C)cc1 , report its normalized growth.
stdout: 1.01 (inactive)

stdin: Report normalized growth for CCN(CC)CCOC(=O)c1ccc(N)cc1 please.
stdout: 0.999 (inactive)

stdin: Report normalized growth for CCCCN(CCCC)CCCOC(=O)c1ccc(N)cc1 please.
stdout: 0.995 (inactive)

stdin: Query (molecule): NC(N)=NS(=O)(=O)c1ccc(N)cc1 ; field requested: normalized growth
stdout: 1.02 (inactive)

stdin: What does the record list as normalized growth for CCCCCCOc1ccccc1C(N)=O ?
stdout: 0.744 (active)

----------
- Assay comment: chemical genetic growth profiling, strain panel (AID 1159580);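 further: tested at 20 µM; growth read once vehicle control cultures reached saturation at 30 °C; 1 = growth at the plate median or of vehicle wells; lower values mean less growth of the strain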
- Details: S. cerevisiae deletion strains, growth OD, locus YER155C, strain BEM2 (second series), hits give low values
The whole screen tested about 5,500 compounds, of which about 2,000 (36%) were called active. Inconclusive results (about 18%) are left out. This is one part of the list.
Readout kind: normalized growth

| Compound | Assay value |
| --- | --- |
| Cc1cc(-c2ccccc2)nnc1NCCN1CCOCC1 | 1 (inactive) |
| CC(=O)OC1CCC2(C)C(=CC=C3C2CCC2(C)C3CCC2C(C)/C=C/C(C)C(C)C)C1(C)C (centres undefined) | 1.05 (inactive) |
| CC(C)C(C)/C=C/C(C)C1CCC2C3=CC=C4CC(O)CCC4(C)C3CCC21C (centres undefined) | 0.968 (inactive) |

Now turn to the next compound.
stdin: Find the recorded normalized growth belonging to C[C@@H]1C(=O)OC2[C@H](O)C34[C@@H]5OC(=O)[C@@]3(O[C@@H]3OC(=O)[C@H](O)[C@@]34[C@H](C(C)(C)C)[C@H]5O)[C@]21O (some centres undefined) and report it.
stdout: 1.02 (inactive)
